src = patent US8969552B2

- target_entity: human dopamine D2L receptors (long isoform) (Homo sapiens, UniProt P14416)
- Construct: membranes
- Sequence (P14416 whole entry, canonical isoform): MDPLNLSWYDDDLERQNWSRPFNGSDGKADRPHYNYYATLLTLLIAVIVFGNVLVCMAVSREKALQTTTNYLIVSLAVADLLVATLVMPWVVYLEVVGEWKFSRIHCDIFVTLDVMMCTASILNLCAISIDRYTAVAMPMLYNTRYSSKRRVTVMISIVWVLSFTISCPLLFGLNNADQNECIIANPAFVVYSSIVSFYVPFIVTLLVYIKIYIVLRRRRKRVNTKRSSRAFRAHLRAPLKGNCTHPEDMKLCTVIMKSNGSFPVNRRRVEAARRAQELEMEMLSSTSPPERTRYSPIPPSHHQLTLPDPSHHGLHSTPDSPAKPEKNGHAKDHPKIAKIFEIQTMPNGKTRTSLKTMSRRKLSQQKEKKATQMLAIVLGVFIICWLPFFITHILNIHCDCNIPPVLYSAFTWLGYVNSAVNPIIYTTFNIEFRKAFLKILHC
- experimental_protocol: Dopamine D2L receptor binding, [125I] iodospiperone displacement
- condition_details: membranes of HEK-293 cells stably expressing human D2L receptor; 0.01 nM [125I] iodospiperone; 25° C., 60 minutes; read-out: Ki(D2)*
readout_type: pKi
Units for pKi: none; it is -log10 of a concentration expressed in mol/L.

State its pKi: C=CCN[C@@H]1CCc2cc(NS(=O)(=O)c3ccc(C(C)C)cc3)ccc2C1.Cl [Example 6, hydrochloride] 7.84

State its pKi: CCCN(CCC)[C@@H]1CCc2cc(NS(=O)(=O)c3ccc(C(C)C)cc3)ccc2C1.Cl [Example 29, hydrochloride] 8.86

State its pKi: CCCN(CCC)[C@H]1CCc2cc(NS(=O)(=O)c3ccc(C(C)C)cc3)ccc2C1.Cl [Example 30, hydrochloride] 7.95

State its pKi: CCCN1CCC[C@@H]2Cc3cc(NS(=O)(=O)c4ccc(C(C)C)cc4)ccc3C[C@H]21 (relative stereo) 6.94

###

- target_entity: human dopamine D3 receptors (Homo sapiens, UniProt P35462)
- Construct: expressed in transfected cells; membranes
- Sequence (P35462 whole entry): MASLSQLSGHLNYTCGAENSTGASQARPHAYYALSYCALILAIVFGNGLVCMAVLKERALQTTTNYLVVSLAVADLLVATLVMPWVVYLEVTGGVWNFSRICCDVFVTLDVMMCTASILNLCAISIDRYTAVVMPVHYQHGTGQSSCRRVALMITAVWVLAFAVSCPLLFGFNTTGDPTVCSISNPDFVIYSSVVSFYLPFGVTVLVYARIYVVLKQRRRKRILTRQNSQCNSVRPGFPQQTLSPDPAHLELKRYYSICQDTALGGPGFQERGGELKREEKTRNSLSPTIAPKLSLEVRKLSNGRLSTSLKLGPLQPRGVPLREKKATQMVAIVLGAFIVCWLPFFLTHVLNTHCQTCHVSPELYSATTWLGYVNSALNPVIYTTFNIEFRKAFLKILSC
- experimental_protocol: Dopamine D3 receptor binding, [125I]-iodosulpride displacement
- condition_details: selectivity ratio of receptor binding constants D2 versus D3
Give measured Ki(D2)*/Ki(D3)* for each item. Keep answers brief.

State its Ki(D2)*/Ki(D3)*: CCCN[C@H]1CCc2cc(NS(=O)(=O)c3ccc(C(C)(C)F)cc3)ccc2C1.O=C(O)C(F)(F)F 77

State its Ki(D2)*/Ki(D3)*: CCCN[C@H]1CCc2cc(NS(=O)(=O)c3ccc([C@H](C)CF)cc3)ccc2C1.Cl 230

State its Ki(D2)*/Ki(D3)*: CCCN1CCC[C@@H]2Cc3cc(NS(=O)(=O)c4ccc(C(C)C)cc4)ccc3C[C@H]21 (relative stereo) 50

State its Ki(D2)*/Ki(D3)*: CCN[C@H]1CCc2cc(NS(=O)(=O)c3ccc(N4CCCC4)cc3)ccc2C1.Cl 61

State its Ki(D2)*/Ki(D3)*: C=CCN1CCC[C@H]2c3cc(NS(=O)(=O)c4ccc(C(C)C)cc4)ccc3CC[C@@H]21 45

State its Ki(D2)*/Ki(D3)*: CCCN[C@H]1CCc2cc(NS(=O)(=O)c3ccc(C(C)C(F)F)cc3)ccc2C1.Cl (stereo partly shown) 304

State its Ki(D2)*/Ki(D3)*: CCN[C@H]1CCc2cc(NS(=O)(=O)c3ccc(C(C)C)cc3)ccc2C1.Cl 70

###

Give measured pKi for each item. Keep answers brief.
Units for pKi: none; it is -log10 of a concentration expressed in mol/L.

Quote pKi with test system human dopamine D3 receptors (Homo sapiens, UniProt P35462) for CCCN[C@H]1CCc2cc(NS(=O)(=O)c3ccc(N4CC[C@@H](F)C4)cc3)ccc2C1 9.21

Quote pKi with test system human dopamine D3 receptors (Homo sapiens, UniProt P35462) for CCCN[C@H]1CCc2cc(NS(=O)(=O)c3ccc(C4CC4(F)F)cc3)ccc2C1.Cl (stereo partly drawn) [Example 48, hydrochloride] 8.82

Quote pKi with test system human dopamine D3 receptors (Homo sapiens, UniProt P35462) for CCCN[C@H]1CCc2cc(NS(=O)(=O)c3ccc(C(C)C(F)F)cc3)ccc2C1.Cl (stereo partly drawn) [Example 77, hydrochloride] 8.78

Quote pKi with test system human dopamine D3 receptors (Homo sapiens, UniProt P35462) for CCCN[C@H]1CCc2cc(NS(=O)(=O)c3ccc([C@@H](C)CF)cc3)ccc2C1.Cl [Example 56, hydrochloride] 8.62

Quote pKi with test system human dopamine D3 receptors (Homo sapiens, UniProt P35462) for CCC(=O)N1CCC[C@@H]2Cc3cc(NS(=O)(=O)c4ccc(C(C)C)cc4)ccc3C[C@H]21 (relative stereo) 7.72

Quote pKi with test system human dopamine D3 receptors (Homo sapiens, UniProt P35462) for CCCN[C@@H]1CCc2cc(NS(=O)(=O)c3ccc(CCCF)cc3)ccc2C1.Cl [Example 58, hydrochloride] 9.82

Quote pKi with test system human dopamine D3 receptors (Homo sapiens, UniProt P35462) for CCCN[C@H]1CCc2cc(NS(=O)(=O)c3ccc(-n4cccn4)cc3)ccc2C1.Cl [Example 76, hydrochloride] 8.06

Quote pKi with test system human dopamine D3 receptors (Homo sapiens, UniProt P35462) for CCCN[C@H]1CCc2cc(NS(=O)(=O)c3ccc([C@H](C)CF)cc3)ccc2C1.Cl [Example 55, hydrochloride] 8.77

Quote pKi with test system human dopamine D3 receptors (Homo sapiens, UniProt P35462) for CCCN[C@H]1CCc2cc(NS(=O)(=O)c3ccc(CCC)s3)ccc2C1.Cl [Example 52, hydrochloride] 9.15

Quote pKi with test system human dopamine D3 receptors (Homo sapiens, UniProt P35462) for CCN[C@H]1CCc2cc(NS(=O)(=O)c3ccc(C(C)C)cc3)ccc2C1.Cl [Example 64, hydrochloride] 8.47

Quote pKi with test system human dopamine D3 receptors (Homo sapiens, UniProt P35462) for C=CCN[C@H]1CCc2cc(N(C)S(=O)(=O)c3ccc(C(C)C)cc3)ccc2C1 7.82

Quote pKi with test system human dopamine D3 receptors (Homo sapiens, UniProt P35462) for CCCN[C@H]1CCc2cc(NS(=O)(=O)c3ccc(N(C)C)cc3)ccc2C1.Cl [Example 50, hydrochloride] 8.74

Quote pKi with test system human dopamine D3 receptors (Homo sapiens, UniProt P35462) for CCCN[C@@H]1CCc2cc(NS(=O)(=O)c3ccc(C(C)C)cc3)ccc2C1 9.47

Quote pKi with test system human dopamine D3 receptors (Homo sapiens, UniProt P35462) for CCCN(CCC)[C@@H]1CCc2cc(NS(=O)(=O)c3ccc(C(C)C)cc3)ccc2C1.Cl [Example 29, hydrochloride] 9.43

Quote pKi with test system human dopamine D3 receptors (Homo sapiens, UniProt P35462) for CC(C)c1ccc(S(=O)(=O)Nc2ccc3c(c2)CC[C@H](NCCCF)C3)cc1.Cl [Example 68, hydrochloride] 8.70

Quote pKi with test system human dopamine D3 receptors (Homo sapiens, UniProt P35462) for CCCN[C@H]1CCc2cc(N(C)S(=O)(=O)c3ccc(C(C)C)cc3)ccc2C1 8.09

Quote pKi with test system human dopamine D3 receptors (Homo sapiens, UniProt P35462) for CCCN[C@H]1CCc2cc(NS(=O)(=O)c3ccc(CC(F)(F)F)cc3)ccc2C1.Cl [Example 47, hydrochloride] 8.29

Quote pKi with test system human dopamine D3 receptors (Homo sapiens, UniProt P35462) for CCN[C@H]1CCc2cc(NS(=O)(=O)c3ccc(N4CCCC4)cc3)ccc2C1.Cl [Example 70, hydrochloride] 8.44

Quote pKi with test system human dopamine D3 receptors (Homo sapiens, UniProt P35462) for CCN[C@H]1CCc2cc(NS(=O)(=O)c3ccc(OC(F)(F)F)cc3)ccc2C1.Cl [Example 63, hydrochloride] 7.51

Quote pKi with test system human dopamine D3 receptors (Homo sapiens, UniProt P35462) for CCCN[C@H]1CCc2cc(NS(=O)(=O)c3ccc(C(C)(C)F)cc3)ccc2C1.O=C(O)C(F)(F)F 8.21

Quote pKi with test system human dopamine D3 receptors (Homo sapiens, UniProt P35462) for C=CCN[C@H]1CCc2cc(NS(=O)(=O)c3ccc(C(C)C)cc3)ccc2C1.Cl [Example 7, hydrochloride] 8.71

Quote pKi with test system human dopamine D3 receptors (Homo sapiens, UniProt P35462) for CCCN[C@H]1CCc2cc(NS(=O)(=O)c3ccc(N4CCCC4)cc3)ccc2C1.Cl [Example 49, hydrochloride] 8.89

Quote pKi with test system human dopamine D3 receptors (Homo sapiens, UniProt P35462) for CCCN[C@H]1CCc2cc(NS(=O)(=O)c3ccc(C(C)C)cc3)ccc2C1.Cl [Example 8, hydrochloride] 9.30

Quote pKi with test system human dopamine D3 receptors (Homo sapiens, UniProt P35462) for CCCN[C@H]1CCc2cc(NS(=O)(=O)c3ccc(OC(F)F)cc3)ccc2C1.Cl [Example 46, hydrochloride] 8.60

Quote pKi with test system human dopamine D3 receptors (Homo sapiens, UniProt P35462) for C=CCN[C@@H]1CCc2cc(NS(=O)(=O)c3ccc(C(C)C)cc3)ccc2C1.Cl [Example 6, hydrochloride] 9.55

Quote pKi with test system human dopamine D3 receptors (Homo sapiens, UniProt P35462) for C=CCN1CCC[C@H]2c3cc(NS(=O)(=O)c4ccc(C(C)C)cc4)ccc3CC[C@@H]21 8.12

Quote pKi with test system human dopamine D3 receptors (Homo sapiens, UniProt P35462) for CCCN(CCC)[C@H]1CCc2cc(NS(=O)(=O)c3ccc(C(C)C)cc3)ccc2C1.Cl [Example 30, hydrochloride] 9.41
